Sourced from patent US12686690B2

Reported hOX2R_Ipone max %act by item:
molecular target: hOX2R (Homo sapiens); construct: expressed in transfected cells; host or cells: CHO cells (G418 selection); test: hOX2R IPone assay (orexin receptor agonism); format: cell-based; settings: maximal activation, IPone readout
Sequence (O43614 whole entry): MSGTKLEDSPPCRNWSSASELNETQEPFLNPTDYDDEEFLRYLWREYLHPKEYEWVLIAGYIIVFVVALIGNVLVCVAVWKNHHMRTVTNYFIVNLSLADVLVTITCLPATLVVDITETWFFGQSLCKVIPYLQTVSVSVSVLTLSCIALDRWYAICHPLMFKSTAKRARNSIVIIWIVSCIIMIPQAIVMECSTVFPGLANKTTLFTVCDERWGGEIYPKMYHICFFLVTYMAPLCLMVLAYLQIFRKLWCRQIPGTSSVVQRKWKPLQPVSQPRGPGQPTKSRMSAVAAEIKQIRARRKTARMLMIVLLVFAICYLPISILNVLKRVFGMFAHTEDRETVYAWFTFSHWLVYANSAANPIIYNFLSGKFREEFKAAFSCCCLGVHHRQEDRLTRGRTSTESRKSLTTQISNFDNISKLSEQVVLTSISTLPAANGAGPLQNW
Answer format: number, then unit.

CCN1C(=O)NC(C)CCCCCOc2nc(cn3ccnc23)-c2cc(ncc2OC)[C@H]1C (single isomer, unassigned) [Example 9A] = 99.27%
CCN1C(=O)N[C@@H](CCC(F)(F)F)CCCCCOc2nc(nn3cc(C)nc23)-c2cc(ncc2OC)[C@H]1C = 102.5%
CCN1C(=O)NCCN(C)CCC(C)Oc2nc(cn3ccnc23)-c2cccc(c2)[C@H]1C (mixture of isomers) = 77.7%

Could you now look at the following molecule, please?
Prompt: Name the reported hOX2R_Ipone max %act value associated with the molecule CCN1C(=O)N[C@@H](CCC(F)(F)F)COCCCOc2nc(cn3cnnc23)-c2cc(ncc2OC)[C@H]1C
Completion: 103.9%
